Please respond with reported Ki for every item in the list.
Target: 5-HT1A (Mus musculus, UniProt Q64264)
Construct: tissue BioIVT; host or cells: whole C57BL/6 mouse brain minus cerebellum, male and female
Sequence (Q64264 whole entry): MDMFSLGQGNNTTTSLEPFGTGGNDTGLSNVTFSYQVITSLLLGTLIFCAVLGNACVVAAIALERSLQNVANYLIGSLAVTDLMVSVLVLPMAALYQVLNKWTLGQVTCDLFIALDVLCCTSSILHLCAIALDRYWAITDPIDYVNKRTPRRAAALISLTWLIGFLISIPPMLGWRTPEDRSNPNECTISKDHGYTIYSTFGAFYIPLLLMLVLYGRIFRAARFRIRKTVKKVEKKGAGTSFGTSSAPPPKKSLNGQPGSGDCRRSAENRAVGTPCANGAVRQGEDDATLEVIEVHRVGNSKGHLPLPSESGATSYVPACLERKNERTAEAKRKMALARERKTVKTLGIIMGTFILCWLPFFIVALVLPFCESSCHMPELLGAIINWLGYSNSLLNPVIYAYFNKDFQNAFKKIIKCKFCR
Experiment: Competition binding vs [3H]8-OH-DPAT in mouse brain membranes
Settings: 5-HT1A binding affinity (Ki), males and females, male and female mouse brain membranes, summary statement

Entry under test: CN(C)CCc1c[nH]c2cccc(O)c12 . Its Ki was 1 to 100 nM

Reported Ki ( CCN(CC)C(=O)[C@@H]1C=C2c3cccc4[nH]cc(c34)C[C@H]2N(C)C1 [LSD, lysergic acid diethylamide] ) = 1 to 100 nM

----------
Target: 5-HT1A (Mus musculus)
Construct: tissue BioIVT; host or cells: whole C57BL/6 mouse brain minus cerebellum, male and female
Assay: Competition binding vs [3H]8-OH-DPAT in mouse brain membranes
Conditions: [3H]8-OH-DPAT Binding ♂ m5-HT1A Ki, male mouse brain membranes
Measured Property: pKi
# pKi = -log10(concentration in molar units)

Briefly, pKi measured for CN(C)CCc1c[nH]c2cccc(O)c12 [Psilocin] : 6.95

get_value(item= COc1cc(CC(C)N)c(OC)cc1I (stereo not drawn) [DOI, 2,5-dimethoxy-4-iodoamphetamine] , readout=pKi) returns 5.54

Measured pKi of CCN(CC)C(=O)[C@@H]1C=C2c3cccc4[nH]cc(c34)C[C@H]2N(C)C1 [LSD, lysergic acid diethylamide] : 8.99

----------
I'd appreciate it if you could supply Ki values for the items below.
Target: 5-HT2A (Mus musculus, UniProt P35363)
Construct: tissue BioIVT; host or cells: whole C57BL/6 mouse brain minus cerebellum, male and female
Sequence (P35363 whole entry): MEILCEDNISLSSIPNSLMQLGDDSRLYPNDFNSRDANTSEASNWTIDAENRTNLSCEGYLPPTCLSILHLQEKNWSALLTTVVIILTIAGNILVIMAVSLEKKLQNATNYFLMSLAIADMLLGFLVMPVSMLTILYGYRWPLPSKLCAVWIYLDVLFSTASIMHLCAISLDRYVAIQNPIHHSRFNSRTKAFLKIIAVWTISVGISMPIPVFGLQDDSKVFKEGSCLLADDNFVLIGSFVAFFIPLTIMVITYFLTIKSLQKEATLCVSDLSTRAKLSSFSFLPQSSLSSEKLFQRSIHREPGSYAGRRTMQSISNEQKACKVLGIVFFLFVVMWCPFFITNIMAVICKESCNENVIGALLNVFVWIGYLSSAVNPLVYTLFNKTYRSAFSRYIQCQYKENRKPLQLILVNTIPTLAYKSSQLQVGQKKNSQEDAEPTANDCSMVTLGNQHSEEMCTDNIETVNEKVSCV
Test: Competition binding vs [3H]M100907 in mouse brain membranes
Details: [3H]M100907 Binding ♀ m5-HT2A Ki, female mouse brain membranes

The compound identified as CN(C)CCc1c[nH]c2cccc(O)c12 registered its Ki at 113 nM

Sample CCN(CC)C(=O)[C@@H]1C=C2c3cccc4[nH]cc(c34)C[C@H]2N(C)C1 [LSD, lysergic acid diethylamide] ; Ki observed: 1.9 nM

# compound COc1cc(CC(C)N)c(OC)cc1I (stereo not drawn) ; its Ki = 11 nM

----------
Molecular target: 5-HT1A (Mus musculus)
Construct: tissue BioIVT; host or cells: whole C57BL/6 mouse brain minus cerebellum, male and female
Assay: Competition binding vs [3H]8-OH-DPAT in mouse brain membranes
Settings: [3H]8-OH-DPAT Binding ♀ m5-HT1A Ki, female mouse brain membranes
Give pKi for every item shown.
# log scale: pKi equals minus log10 of the concentration in mol/L

So for COc1cc(CC(C)N)c(OC)cc1I (stereo not drawn) , the logged pKi turned out to be 5.58

Please fill in: pKi reported for CCN(CC)C(=O)[C@@H]1C=C2c3cccc4[nH]cc(c34)C[C@H]2N(C)C1 [LSD, lysergic acid diethylamide] = 9.02

Recorded result, CN(C)CCc1c[nH]c2cccc(O)c12 , pKi: 7.00

----------
Assignment: determine reported Ki for the given molecules.
Biological target: 5-HT2A (Mus musculus)
Construct: tissue BioIVT; host or cells: whole C57BL/6 mouse brain minus cerebellum, male and female
Experiment: Competition binding vs [3H]M100907 in mouse brain membranes
Conditions: [3H]M100907 Binding ♂ m5-HT2A Ki, male mouse brain membranes
Give the number; nM is assumed, so skip it.

// CN(C)CCc1c[nH]c2cccc(O)c12 : Ki value = 110

Ki measured on CCN(CC)C(=O)[C@@H]1C=C2c3cccc4[nH]cc(c34)C[C@H]2N(C)C1 [LSD, lysergic acid diethylamide] = 2.3

Input COc1cc(CC(C)N)c(OC)cc1I (stereo not drawn) . Output Ki: 13
